# Assay target: AHR (Homo sapiens)
# Construct: U87 MG glioblastoma cells (ATCC #HTB-14) endogenously expressing AHR; endogenous in cells; host or cells: U87 MG glioblastoma cells (ATCC #HTB-14)
# Assay remarks: In vitro assay 1: antagonism in human cell line (AHR transactivation, firefly luciferase reporter, kynurenic acid prestimulated)
# Format: cell-based
# Protocol conditions: AHR Antagonism Human IC50 [M]
List of log10(IC50) values.
Values below are the log10 of the recorded IC50, with M as the unit.

// worked examples, log10(IC50) included
{"columns": ["Compound", "log10(IC50)"],
 "data": [
  ["O=C1NCCNC[C@H]1Nc1nc2c(Br)cccc2c2nc(-c3cccc(F)c3)nn12", -8.20],
  ["COC(=O)c1cccc2nc(N[C@@H]3CCCCNC3=O)n3nc(-c4ccc(OC)cc4)nc3c12", -7.18],
  ["O=C1NCCCC[C@H]1Nc1nc2ccccc2c2nc(-c3cnn(C4CCNCC4)c3)nn12", -5.54],
  ["Cc1c(-c2nc3c4ccccc4nc(N[C@@H]4CCCCNC4=O)n3n2)cnn1C", -7.99],
  ["COc1ccc(-c2nc3c4c(C5COC5)cccc4nc(N[C@@H]4CCCCNC4=O)n3n2)cc1", -7.95]
]}

Lookup: # input compound: `COc1ccc(-c2nc3c4cccc(Br)c4nc(N[C@@H](C(N)=O)C(C)C)n3n2)cc1` ; wanted: its log10(IC50)
Found: -9.39

Lookup: Consider next the compound `O=C1NCCCC[C@H]1Nc1nc2cccc(Br)c2c2nc(-c3cccc(F)c3)nn12` in the same way.
Found: -7.67

Lookup: Try this compound too: `COc1cccc(-c2nc3c4c(F)cccc4nc(N[C@@H]4CCCCNC4=O)n3n2)c1`
Found: -7.98

---

# Assay target: AHR (Mus musculus)
# Sequence (P30561 whole entry P471L/N533S/M589L, form open): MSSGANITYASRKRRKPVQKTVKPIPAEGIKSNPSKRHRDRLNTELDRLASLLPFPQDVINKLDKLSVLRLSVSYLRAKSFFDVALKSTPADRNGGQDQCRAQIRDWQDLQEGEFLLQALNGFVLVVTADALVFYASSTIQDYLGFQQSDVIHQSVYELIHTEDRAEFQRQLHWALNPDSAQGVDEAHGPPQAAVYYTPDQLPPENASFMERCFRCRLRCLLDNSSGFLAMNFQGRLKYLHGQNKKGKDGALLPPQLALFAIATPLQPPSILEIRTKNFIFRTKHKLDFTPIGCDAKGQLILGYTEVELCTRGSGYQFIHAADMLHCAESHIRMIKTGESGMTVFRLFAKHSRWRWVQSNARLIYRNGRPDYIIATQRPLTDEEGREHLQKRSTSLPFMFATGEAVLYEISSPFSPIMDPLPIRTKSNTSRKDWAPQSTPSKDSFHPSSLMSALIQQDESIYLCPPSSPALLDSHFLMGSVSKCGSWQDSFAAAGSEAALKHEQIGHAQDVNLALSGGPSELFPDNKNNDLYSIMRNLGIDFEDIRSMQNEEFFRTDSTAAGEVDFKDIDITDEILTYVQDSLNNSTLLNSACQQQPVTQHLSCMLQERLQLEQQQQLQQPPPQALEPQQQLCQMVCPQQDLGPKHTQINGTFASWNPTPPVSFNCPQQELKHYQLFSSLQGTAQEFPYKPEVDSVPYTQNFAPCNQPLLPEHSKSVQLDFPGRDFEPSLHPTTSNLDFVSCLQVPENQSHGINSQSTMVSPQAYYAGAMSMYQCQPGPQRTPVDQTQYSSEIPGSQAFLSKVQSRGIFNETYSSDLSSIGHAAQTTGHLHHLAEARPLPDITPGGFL
# Assay remarks: In vitro assay 3: antagonism in mouse cell line (AHR transactivation, firefly luciferase reporter, kynurenic acid prestimulated)
# Type: cell-based
# Protocol conditions: read-out: AHR Antagonism Mouse IC50, mouse Hepa 1c1c7 cells, 200 μM kynurenic acid, 20 hours
Form field: IC50 (one value per entry).
Respond with the bare value in nM.

These recorded examples may help you get a feel for the data.
{"columns": ["Smiles entry", "Unit text", "IC50"],
 "data": [
  ["O=C1NCCCC[C@H]1Nc1nc2c(F)cccc2c2nc(-c3cccc(F)c3)nn12", "nM", 0.823],
  ["CC[C@@H](Nc1nc2ccccc2c2nc(-c3ccccc3OC(F)F)nn12)C(N)=O", "nM", 0.554]
]}

Moving on to the next compound.
Lookup: # query: IC50 of entry `O=C1NCCCC[C@H]1Nc1nc2ccccc2c2nc(-c3cccc(F)c3)nn12`
Found: 0.569

---

IC50 values for the compounds below.
# Assay target: UniProt P30561
# Assay remarks: In vitro assay 3: antagonism in mouse cell line (AHR transactivation, firefly luciferase reporter, kynurenic acid prestimulated)
# Type: cell-based
# Protocol conditions: Hepa 1c1c7 cells, 200 μM kynurenic acid, 20 hours, firefly luciferase reporter, read-out: AHR Antagonism Mouse IC50
Report as a plain number; the unit nM is understood.

{"columns": ["Compound", "Unit text", "IC50"],
 "data": [
  ["COc1ccc(-c2nc3c4ccccc4nc(N[C@H](C)C(=O)NCCN(C)C(=O)OC(C)(C)C)n3n2)cc1", "nM", 4.45],
  ["C[C@@H](Nc1nc2c(C(F)(F)F)cccc2c2nc(-c3cnn(C)c3)nn12)C(=O)N1CCC(N(C)C)C1 (mixture of isomers)", "nM", 110],
  ["CCCCNC(=O)[C@@H](CC)Nc1nc2c(Br)cccc2c2nc(-c3ccc(Cl)cc3OC(F)(F)F)nn12", "nM", 11],
  ["CC(C)n1cc(-c2nc3c4cccc(C5CC5)c4nc(N[C@@H]4CNCCNC4=O)n3n2)cn1", "nM", 452],
  ["CN1CCNC(=O)[C@H](Nc2nc3c(Br)cccc3c3nc(-c4cnn(C)c4)nn23)C1", "nM", 25.6],
  ["CC(C)n1cc(-c2nc3c4cccc(C(F)(F)F)c4nc(N[C@@H]4CSCCNC4=O)n3n2)cn1", "nM", 2.02],
  ["C[C@@H](Nc1nc2c(Br)cccc2c2nc(-c3cnn(C)c3)nn12)C(=O)NCCN1CCN(C)CC1", "nM", 291],
  ["CCSc1cccc2c1nc(N[C@@H]1CNCCNC1=O)n1nc(-c3ccc(OC)cc3)nc21", "nM", 22.5]
]}

Lookup: For the compound shown here, `CCCNC(=O)[C@@H](CC)Nc1nc2c(Br)cccc2c2nc(-c3ccc(Cl)cc3OC(F)(F)F)nn12` , give the reported IC50.
Found: 2.47

Lookup: Another compound: `COCc1cccc2c1nc(N[C@@H]1CCCCNC1=O)n1nc(-c3cnn(C)c3)nc21`
Found: 266

---

# Assay target: AHR (Homo sapiens)
# Construct: U87 MG glioblastoma cells (ATCC #HTB-14) endogenously expressing AHR; endogenous in cells; host or cells: U87 MG glioblastoma cells (ATCC #HTB-14)
# Sequence (P35869 11-848): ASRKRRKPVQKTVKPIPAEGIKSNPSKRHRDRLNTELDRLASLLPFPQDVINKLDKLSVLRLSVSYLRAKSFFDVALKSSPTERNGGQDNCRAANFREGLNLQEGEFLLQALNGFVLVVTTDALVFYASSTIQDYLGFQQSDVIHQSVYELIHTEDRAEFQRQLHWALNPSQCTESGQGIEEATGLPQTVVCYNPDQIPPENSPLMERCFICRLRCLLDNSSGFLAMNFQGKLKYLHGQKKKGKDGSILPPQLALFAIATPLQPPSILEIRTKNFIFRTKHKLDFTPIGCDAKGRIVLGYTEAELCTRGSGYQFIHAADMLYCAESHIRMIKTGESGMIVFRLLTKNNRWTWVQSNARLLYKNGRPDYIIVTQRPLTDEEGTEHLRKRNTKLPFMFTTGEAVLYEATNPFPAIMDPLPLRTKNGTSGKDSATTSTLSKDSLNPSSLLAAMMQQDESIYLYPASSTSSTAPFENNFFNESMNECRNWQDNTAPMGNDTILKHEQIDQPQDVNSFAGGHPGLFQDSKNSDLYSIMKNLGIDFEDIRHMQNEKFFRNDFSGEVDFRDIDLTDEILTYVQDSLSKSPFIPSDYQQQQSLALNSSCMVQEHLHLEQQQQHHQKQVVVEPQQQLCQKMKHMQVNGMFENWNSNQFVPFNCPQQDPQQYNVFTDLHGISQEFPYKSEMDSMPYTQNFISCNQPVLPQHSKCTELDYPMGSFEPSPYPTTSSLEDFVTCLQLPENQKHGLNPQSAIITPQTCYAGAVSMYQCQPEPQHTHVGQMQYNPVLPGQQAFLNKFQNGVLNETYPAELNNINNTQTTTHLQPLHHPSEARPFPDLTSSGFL
# Assay remarks: In vitro assay 1: antagonism in human cell line (AHR transactivation, firefly luciferase reporter, kynurenic acid prestimulated)
# Assay type: cell-based
# Protocol conditions: AHR Antagonism Human IC50 [M]
# Description: Examples were tested in selected biological assays one or more times. […] Firefly luciferase and Renilla activity was determined by the DualGlo Luciferase Assay System (Promega, #2920). […]
Reported metric: IC50 (M)
Please reply with the bare figure in M and do not write the unit itself.

In the examples that follow, each entry is paired with its recorded IC50.
{"columns": ["Compound", "Readout number"],
 "data": [
  ["COc1cccc(-c2nc3c4ccccc4nc(NC4CCCNC4=O)n3n2)c1 (single isomer, unassigned) [Example 118]", "6.43e-08"],
  ["COc1cccc(-c2nc3c4ccccc4nc(N[C@H](C)C(=O)NC4CCC4)n3n2)c1", "6.94e-09"],
  ["COc1ccc(-c2nc3c4cccc(Br)c4nc(N[C@H](C)C(=O)NCCN4CCN(C)CC4)n3n2)cc1", "4.91e-09"]
]}

Shifting focus to the compound that follows.
Lookup: Look up IC50: `O=C1NCCCC[C@H]1Nc1nc2c(C(F)(F)F)cccc2c2nc(-c3cn[nH]c3)nn12`
Found: 1.33e-08

---

# IC50 per entry
# Assay target: AHR (Homo sapiens, UniProt P35869)
# Construct: U87 MG glioblastoma cells (ATCC #HTB-14) endogenously expressing AHR; endogenous in cells; host or cells: U87 MG glioblastoma cells (ATCC #HTB-14)
# Sequence (P35869 11-848): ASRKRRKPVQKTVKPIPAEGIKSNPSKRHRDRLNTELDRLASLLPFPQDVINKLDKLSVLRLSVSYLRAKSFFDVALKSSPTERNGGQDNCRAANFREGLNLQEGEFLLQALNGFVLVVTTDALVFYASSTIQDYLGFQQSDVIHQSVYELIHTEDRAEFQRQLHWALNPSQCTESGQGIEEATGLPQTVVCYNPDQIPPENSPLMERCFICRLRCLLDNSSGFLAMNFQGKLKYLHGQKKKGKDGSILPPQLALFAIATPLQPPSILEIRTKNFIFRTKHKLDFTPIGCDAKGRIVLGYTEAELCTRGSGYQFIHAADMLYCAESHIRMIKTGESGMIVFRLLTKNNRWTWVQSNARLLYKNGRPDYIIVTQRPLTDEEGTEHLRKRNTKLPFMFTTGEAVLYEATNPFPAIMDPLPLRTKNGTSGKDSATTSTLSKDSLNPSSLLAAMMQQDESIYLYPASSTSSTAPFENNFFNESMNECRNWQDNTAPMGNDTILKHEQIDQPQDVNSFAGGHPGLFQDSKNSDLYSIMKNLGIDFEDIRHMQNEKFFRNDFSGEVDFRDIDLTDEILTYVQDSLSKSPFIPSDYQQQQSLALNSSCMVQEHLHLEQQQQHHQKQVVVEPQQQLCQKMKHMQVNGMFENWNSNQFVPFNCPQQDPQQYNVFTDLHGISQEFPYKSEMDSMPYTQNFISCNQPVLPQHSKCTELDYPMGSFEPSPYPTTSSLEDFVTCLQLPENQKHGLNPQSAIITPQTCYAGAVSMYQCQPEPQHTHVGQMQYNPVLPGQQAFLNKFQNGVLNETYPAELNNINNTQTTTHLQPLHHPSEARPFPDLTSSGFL
# Assay remarks: In vitro assay 1: antagonism in human cell line (AHR transactivation, firefly luciferase reporter, kynurenic acid prestimulated)
# Type: cell-based
# Protocol conditions: AHR Antagonism Human IC50 [M]
Respond numerically; units are M and should not be typed.

Please review the entries below; each comes with its answer.
{"columns": ["Compound", "Reported metric", "Readout number"],
 "data": [
  ["CCC[C@@H](Nc1nc2ccccc2c2nc(-c3cscc3OC)nn12)C(=O)NC [Example 339]", "IC50", "3.37e-07"],
  ["COc1cccc(-c2nc3c4ccccc4nc(N[C@@H](C(N)=O)[C@H](C)OCc4ccccc4)n3n2)c1 [Example 97]", "IC50", "1.56e-07"],
  ["C[C@@H](Nc1nc2ccccc2c2nc(-c3cnn(C)c3)nn12)C(=O)NCCN(C)C [Example 776]", "IC50", "2.92e-06"]
]}

Lookup: Please report the recorded IC50 for O=C1NCCCC[C@@H]1Nc1nc2ccccc2c2nc(-c3ccc(Br)cc3OC(F)(F)F)nn12 [Example 682] .
Found: 7.43e-08

Lookup: Input O=C1NCCCC[C@H]1Nc1nc2ccccc2c2nc(-c3ccccc3Br)nn12 [Example 452]
Found: 3.98e-09

Lookup: Similarly, CC[C@@H](Nc1nc2c(Br)cccc2c2nc(-c3ccc(OC)cc3)nn12)C(N)=O [Example 557] ?
Found: 2.39e-10

Lookup: Same thing, different compound: Cn1cc(-c2nc3c4cccc(C(F)(F)F)c4nc(N[C@@H]4CCNC4=O)n3n2)cn1 [Example 586]
Found: 2.79e-07
